measurement target: SFRP-1 (Homo sapiens)
protocol text: Cell-based assay for in vitro measurement of SFRP-1/SARP2 antagonist activity (U2OS cells co-transfected with 16x TCF-tk-Luciferase reporter, Wnt and hSFRP-1)
cond: U2OS, read-out: Fold Induction with SFRP-1, U2OS cells, single dose 10 μM, luciferase reporter, fold induction over SFRP-1 control
reported property: fold induction at 10 µM

CNc1ccccc1S(=O)(=O)c1ccc(C(F)(F)F)c(S(=O)(=O)NC2CCNCC2)c1	4
CC1(C)CC(NS(=O)(=O)c2cc(S(=O)(=O)c3ccccc3)ccc2C(F)(F)F)CC(C)(C)N1	2.4
CN(CCNS(=O)(=O)c1cc(S(=O)(=O)c2ccccc2)ccc1C(F)(F)F)C(=O)c1ccccc1	3.3

###

measurement target: SFRP-1 (Homo sapiens)
protocol text: Cell-based assay for in vitro measurement of SFRP-1/SARP2 antagonist activity (U2OS cells co-transfected with 16x TCF-tk-Luciferase reporter, Wnt and hSFRP-1)
cond: U2OS, read-out: Fold Induction without SFRP-1, Conc 15 μM; without SFRP-1, single dose
reported property: fold induction at 15 µM

Examples from the recorded data:
Cc1ccc(S(=O)(=O)c2ccccc2)cc1S(=O)(=O)NC[C@@H](C)c1ccccc1	1.1
CCc1ccc(S(=O)(=O)c2ccc(F)cc2)cc1S(=O)(=O)NCCn1ccnc1	1.4
CCN(CC)CCCNS(=O)(=O)c1cc(S(=O)(=O)c2ccccc2)ccc1C	1.2
COCCNS(=O)(=O)c1cc(S(=O)(=O)c2ccccc2)ccc1OC	0.9

(1) Cc1ccc(S(=O)(=O)c2ccccc2)cc1S(=O)(=O)NC1CCN(S(C)(=O)=O)CC1
(2) Cc1ccc(S(=O)(=O)c2ccccc2)cc1S(=O)(=O)N[C@H]1CCCC[C@@H]1O (relative stereo)
## Task Would you mind telling me which has the lower recorded fold induction at 15 µM between 1 and 2 ? When you have decided, please share the label of that item.
## Result 1

###

measurement target: SFRP-1 (Homo sapiens, UniProt Q8N474)
Sequence (Q8N474 32-314): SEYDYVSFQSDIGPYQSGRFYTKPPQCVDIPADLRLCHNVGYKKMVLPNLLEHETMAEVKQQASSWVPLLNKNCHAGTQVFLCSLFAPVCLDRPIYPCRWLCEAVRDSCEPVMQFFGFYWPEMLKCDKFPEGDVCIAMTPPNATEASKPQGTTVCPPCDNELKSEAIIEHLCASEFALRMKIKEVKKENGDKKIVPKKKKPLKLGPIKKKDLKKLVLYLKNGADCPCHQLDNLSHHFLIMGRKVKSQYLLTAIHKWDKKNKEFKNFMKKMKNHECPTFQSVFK
protocol text: Cell-based assay for in vitro measurement of SFRP-1/SARP2 antagonist activity (U2OS cells co-transfected with 16x TCF-tk-Luciferase reporter, Wnt and hSFRP-1)
cond: U2OS, read-out: Fold Induction with SFRP-1, U2OS cells, single dose 10 μM, luciferase reporter, fold induction over SFRP-1 control
reported property: fold induction at 10 µM

O=S(=O)(NCC(O)c1ccccn1)c1cc(S(=O)(=O)c2ccccc2)ccc1C(F)(F)F (centres unmarked) [Example 757]	3.1
CC(C)c1ccc(S(=O)(=O)c2ccccc2)cc1S(=O)(=O)NC1CCOCC1 [Example 670]	3.2
CC(C)c1ccc(S(=O)(=O)c2ccccc2)cc1S(=O)(=O)NC1CCN(C(=O)c2ccc(C#N)cc2)CC1 [Example 811]	2.6
CN(CCNS(=O)(=O)c1cc(S(=O)(=O)c2ccccc2)ccc1C(F)(F)F)C(=O)NC1CCNCC1 [Example 881]	3.4
COc1ccc(NC(=O)N(C)CCNS(=O)(=O)c2cc(S(=O)(=O)c3ccccc3)ccc2C(F)(F)F)cc1 [Example 830]	3.3

###

measurement target: SFRP-1 (Homo sapiens)
protocol text: Cell-based assay for in vitro measurement of SFRP-1/SARP2 antagonist activity (U2OS cells co-transfected with 16x TCF-tk-Luciferase reporter, Wnt and hSFRP-1);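 note: U2OS cells co-transfected with a TCF-tk luciferase reporter, a Wnt vector, hSFRP-1 or empty vector and CMV-βgal, luciferase luminescence read in cell lysates alongside βgal activity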
cond: U2OS, read-out: Fold Induction without SFRP-1, Conc 15 μM; without SFRP-1, single dose
reported property: fold induction at 15 µM

Examples from the recorded data:
Cc1ccc(S(=O)(=O)c2ccccc2)cc1S(=O)(=O)NC1CCN(C(=O)c2cccc(C#N)c2)CC1	1
Cc1ccc(S(=O)(=O)c2cccc(O)c2)cc1S(=O)(=O)NCCc1ccccn1	0.9
Cc1ccc(S(=O)(=O)c2ccc(F)cc2)cc1S(=O)(=O)NCC(O)c1ccccc1 (stereo not shown)	1.4
Cc1ccc(S(=O)(=O)c2ccc(N[C@@H]3C[C@H]4CC[C@@H]3C4)cc2)cc1S(=O)(=O)NCCCn1ccnc1	0.7
CC(C)c1ccc(S(=O)(=O)c2ccc(F)cc2)cc1S(=O)(=O)NC1CCOCC1	1.2

(P) Cc1c(S(=O)(=O)NCCc2ccccc2)cccc1S(=O)(=O)c1ccccc1
(Q) Cc1ccc(S(=O)(=O)c2ccc(N[C@@H](C)C3CCCCC3)cc2)cc1S(=O)(=O)NCCCn1ccnc1
## Task Please state the entry with greater fold induction at 15 µM among P and Q . When you have decided, please share the label of that item.
## Result P

(I) CCc1ccc(S(=O)(=O)c2ccccc2)cc1S(=O)(=O)NCCCN(CC)CC
(II) COCCCNS(=O)(=O)c1cc(S(=O)(=O)c2ccc(F)cc2)ccc1C
## Task Please state the entry with greater fold induction at 15 µM among I and II . When you have decided, please share the label of that item.
## Result I
(I: 1.2, II: 0.8)
